Task for the reader: assign each of the following compounds its reported inhibition.
Molecular target: HAT1/Rbap46 (Homo sapiens) (UniProt Q16576+O14929)
Sequence (O14929 2-419 partner limits assumed): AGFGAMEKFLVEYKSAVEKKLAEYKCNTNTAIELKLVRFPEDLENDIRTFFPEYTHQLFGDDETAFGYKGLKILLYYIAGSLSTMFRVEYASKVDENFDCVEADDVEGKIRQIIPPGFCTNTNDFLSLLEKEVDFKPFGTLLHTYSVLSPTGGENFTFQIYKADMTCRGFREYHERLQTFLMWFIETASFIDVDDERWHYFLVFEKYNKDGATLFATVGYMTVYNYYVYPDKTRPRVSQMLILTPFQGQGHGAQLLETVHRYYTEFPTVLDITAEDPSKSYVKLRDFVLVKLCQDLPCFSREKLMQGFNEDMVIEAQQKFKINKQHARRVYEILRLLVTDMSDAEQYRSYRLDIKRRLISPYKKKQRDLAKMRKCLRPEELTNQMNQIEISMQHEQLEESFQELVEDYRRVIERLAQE
Sequence (Q16576 2-425 limits assumed): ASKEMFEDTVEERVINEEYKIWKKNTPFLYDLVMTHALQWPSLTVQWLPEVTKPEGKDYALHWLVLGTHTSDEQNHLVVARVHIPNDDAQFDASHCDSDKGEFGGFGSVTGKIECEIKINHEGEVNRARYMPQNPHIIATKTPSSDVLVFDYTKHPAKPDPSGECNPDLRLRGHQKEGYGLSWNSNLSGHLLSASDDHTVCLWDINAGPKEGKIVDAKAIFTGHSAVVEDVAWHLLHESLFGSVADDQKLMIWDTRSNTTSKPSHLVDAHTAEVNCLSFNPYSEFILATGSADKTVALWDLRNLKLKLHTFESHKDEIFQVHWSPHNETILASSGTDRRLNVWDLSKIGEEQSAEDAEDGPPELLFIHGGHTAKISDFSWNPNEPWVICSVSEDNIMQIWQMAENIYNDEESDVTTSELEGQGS
Assay: Inhibition of C-terminal FLAG tagged full length human HAT1/Rbap46 transfected in HEK293F cells using histone H4 peptide as substrate and 4-pentynoyl-CoA as cofactor at 100 uM preincubated for 10 mins followed by 4-pentynoyl-CoA addition and measured after 1 hr by amplex red dye based fluorescence analysis relative to control
Format: cell-based
Details: time 70.0 min
State just the number; it will be interpreted in %.

**Q:** Given the entry `CCc1cc2c(cc1Cl)nc1c(=O)[nH]c(=O)nc-1n2CCOc1ccccn1` , report its measured inhibition.
**A:** 55

**Q:** How about `CCc1cc2c(cc1Cl)nc1c(=O)[nH]c(=O)nc-1n2CCOc1cccc(C(F)(F)F)c1` ?
**A:** 11

**Q:** How about O=c1nc2n(CC(O)C(O)C(O)C(O)CO)c3cc(Cl)c(Cl)cc3nc-2c(=O)[nH]1 (stereo not given) ?
**A:** 31

**Q:** How about `CCc1cc2c(cc1Cl)nc1c(=O)[nH]c(=O)nc-1n2CCOCc1cccc(C(F)(F)F)c1` ?
**A:** 23

**Q:** How about `CCc1cc2c(cc1Cl)nc1c(=O)[nH]c(=O)nc-1n2CCO` ?
**A:** 54

----------
Assay: Tmax in CD1 mouse at 100 mg/kg, ip measured after 15 to 4320 mins by LC-MS/MS analysis
Assay type: ADME, organism-based
Conditions: in vivo, time 15-4320 min
attribute measured: Tmax

**Q:** Given the entry `CCc1cc2c(cc1Cl)nc1c(=O)[nH]c(=O)nc-1n2CCOCC(C)C` , report its measured Tmax.
**A:** 1 h

----------
Target: HAT1/Rbap46 (Homo sapiens) (UniProt Q16576+O14929)
Experiment: Inhibition of C-terminal FLAG tagged full length human HAT1/Rbap46 transfected in HEK293F cells using histone H4 peptide as substrate and 4-pentynoyl-CoA as cofactor preincubated for 10 mins followed by 4-pentynoyl-CoA addition and measured after 1 hr by amplex red dye based fluorescence analysis relative to control
Type: cell-based
Design: concentration or dose not given beside the values
Details: time 70.0 min
attribute measured: inhibition (%)
State just the number; it will be interpreted in %.

**Q:** Recorded inhibition for `O=C(O)Cc1ccc(/N=N/c2c(O)c(C(=O)O)cc3ccccc23)cc1` with HAT1/Rbap46 (Homo sapiens) (UniProt Q16576+O14929), please?
**A:** 72.2

**Q:** How about `CC(=O)OCCn1c2nc(=O)[nH]c(=O)c-2nc2cc(C)c(C)cc21` ?
**A:** 51

**Q:** How about `CC(=O)Nc1cc2[nH]c3nc(=O)n(Cc4ccccc4)c(=O)c-3nc2cc1C` ?
**A:** 32

**Q:** How about O=c1nc2n(CC(O)C(O)C(O)C(O)CO)c3cc(Cl)c(Cl)cc3nc-2c(=O)[nH]1 (stereo not drawn) ?
**A:** 46

**Q:** How about `CCC(=O)Nc1cc2[nH]c3nc(=O)n(Cc4ccccc4)c(=O)c-3nc2cc1C` ?
**A:** 28

**Q:** How about `CCc1cc2c(cc1Cl)nc1c(=O)[nH]c(=O)nc-1n2C[C@H](O)[C@H](O)[C@H](O)CO` ?
**A:** 59

**Q:** How about `CC(=O)Nc1cc2[nH]c3nc(=O)n(CC4CCCCC4)c(=O)c-3nc2cc1C` ?
**A:** 25

**Q:** How about `COC1=C(N)C(=O)c2nc(-c3nc(C(=O)O)c(C)c(-c4ccc(OC)c(OC)c4O)c3N)ccc2C1=O` ?
**A:** 66.3

**Q:** How about Cc1cc2cc3c(=O)[nH]c(=O)cc-3n(CC(O)C(O)C(O)CO)c2cc1C (stereo not drawn) ?
**A:** 66.4

**Q:** How about `O=c1nc2n(CCN(CO)CO)c3cc(Cl)c(Cl)cc3nc-2c(=O)[nH]1` ?
**A:** 37

**Q:** How about `NC(=S)c1cn([C@@H]2O[C@H](CO)[C@@H](O)[C@H]2O)c2ncnc(N)c12` ?
**A:** 72.2

**Q:** How about Oc1ccccc1C1=NC2c3ccccc3-c3ccccc3C2N1 (stereo not drawn) ?
**A:** 69

**Q:** How about `CCc1cc2nc3c(=O)[nH]c(=O)nc-3n(C[C@H](O)[C@H](O)[C@H](O)CO)c2cc1Cl` ?
**A:** 64
